src = patent US10214492B2

Target: UniProt:P53985
Sequence (P53985 whole entry): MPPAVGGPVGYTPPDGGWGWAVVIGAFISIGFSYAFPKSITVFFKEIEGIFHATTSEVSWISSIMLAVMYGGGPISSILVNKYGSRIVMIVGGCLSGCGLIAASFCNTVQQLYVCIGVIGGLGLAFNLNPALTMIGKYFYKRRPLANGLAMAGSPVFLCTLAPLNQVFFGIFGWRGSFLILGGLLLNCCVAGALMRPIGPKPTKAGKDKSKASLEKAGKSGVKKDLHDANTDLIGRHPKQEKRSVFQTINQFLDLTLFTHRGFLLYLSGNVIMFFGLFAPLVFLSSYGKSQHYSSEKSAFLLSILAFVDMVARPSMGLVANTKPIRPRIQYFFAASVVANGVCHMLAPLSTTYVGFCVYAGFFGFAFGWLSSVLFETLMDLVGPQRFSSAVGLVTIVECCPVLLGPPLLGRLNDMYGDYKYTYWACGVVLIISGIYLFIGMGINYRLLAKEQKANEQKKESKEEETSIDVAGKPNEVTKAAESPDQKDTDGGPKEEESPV
Sequence (P35613 140-385 partner): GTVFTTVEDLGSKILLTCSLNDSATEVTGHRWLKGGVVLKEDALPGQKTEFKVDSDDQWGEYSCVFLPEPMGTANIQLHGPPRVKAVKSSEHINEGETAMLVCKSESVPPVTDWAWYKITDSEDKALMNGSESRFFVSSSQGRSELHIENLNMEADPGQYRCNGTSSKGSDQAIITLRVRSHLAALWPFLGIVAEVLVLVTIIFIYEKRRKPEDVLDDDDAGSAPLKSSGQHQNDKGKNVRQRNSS
Experiment: Assay 4: MCT1-mediated lactate transport in BT20 breast cancer cells
Format: cell-based
Details: Table 27
Protocol: 10 μL of a 30 mM DMSO stock of BCECF-AM ester (Life Technologies) is added and the cells are incubated at 37° C. for 5 min. The cells are pelleted (300 g, 5 min), washed once with 1 mL Tyrode's Solution, pH 7.4, re-pelleted (300 g, 5 min), and resuspended in 1 mL Tyrode's Solution, pH 7.4. Assay 4: MCT1-Mediated Lactate Transport in BT20 Breast Cancer Cells. Preparation of BCECF loaded cells are as described for Assay 1. […]
Reported IC50 is given for each of the following compounds.
# output: bare number, implied unit nM

Please review the entries below; each comes with its answer.
[in] # return recorded IC50 for input `COc1cccc(-c2cc(COC(C)(C)C(=O)O)nn2Cc2ccccc2OC2CC2)c1`
[out] 26000

[in] # return recorded IC50 for input `CCn1ncc2ccc(-c3cc(CO[C@](C)(CC)C(=O)O)nn3-c3ccccc3N3CCC3)cc21`
[out] 58000

[in] # return recorded IC50 for input `CCOc1ccccc1Cn1nc(COC(C)(C)C(=O)O)cc1-c1cccc(OC2CCC2)c1`
[out] 7300

More entries:
[in] # return recorded IC50 for input `CCOc1ccccc1Cn1nc(CO[C@](C)(CC)C(=O)O)cc1-c1cc(OC)cc(OC)c1`
[out] 10000

[in] # return recorded IC50 for input `CC(C)(OCc1cc(-c2cccc(OC3CC3)c2)n(-c2ccccc2Br)n1)C(=O)O`
[out] 12000

[in] # return recorded IC50 for input `CCOc1ccccc1Cn1nc(COC(C)(C)C(=O)O)cc1-c1cccc(OC)c1`
[out] 33000

[in] # return recorded IC50 for input `Cc1ccccc1-n1nc(COC(C)(C)C(=O)O)cc1-c1cccc(OC2CCC2)c1`
[out] 22000

[in] # return recorded IC50 for input `CC[C@@](C)(OCc1cc(-c2cccc(OC3CC3)c2)n(-c2ccccc2N2CCC2)n1)C(=O)O`
[out] 64000

[in] # return recorded IC50 for input `CCn1nnc2ccc(-c3cc(COC(C)(C)C(=O)O)nn3Cc3ccccc3Cl)cc21`
[out] 43000

[in] # return recorded IC50 for input `CC[C@H](OCc1cc(-c2cccc(OC)c2)n(Cc2ccccc2Cl)n1)C(=O)O`
[out] 2500

[in] # return recorded IC50 for input `COc1ccccc1-c1cc(COC(C)(C)C(=O)O)nn1Cc1ccccc1Cl`
[out] 35000

[in] # return recorded IC50 for input `CC(C)(C)COc1cccc(-c2cc(COC(C)(C)C(=O)O)nn2-c2ccccc2Cl)c1`
[out] 35000

[in] # return recorded IC50 for input `CC(C)(OCc1cc(-c2cccc(OC3CCC3)c2)n(-c2ccccc2N2CCC2)n1)C(=O)O`
[out] 26000

[in] # return recorded IC50 for input `Cc1ccccc1-n1nc(COC(C)(C)C(=O)O)cc1-c1cccc(OCC(C)C)c1`
[out] 15000

[in] # return recorded IC50 for input `CCOc1ccccc1Cn1nc(COC(C)(C)C(=O)O)cc1-c1ccc2cnn(C)c2c1`
[out] 3200

[in] # return recorded IC50 for input `CC[C@@](C)(OCc1cc(-c2cc(OC)cc(OC)c2)n(-c2ccccc2Cl)n1)C(=O)O`
[out] 94000

[in] # return recorded IC50 for input `COc1cccc(OC)c1Cn1nc(COC(C)(C)C(=O)O)cc1-c1cccc(OCC(C)C)c1`
[out] 220

[in] # return recorded IC50 for input `COc1cc(OC)cc(-c2cc(COC(C)(C)C(=O)O)nn2-c2cccc(OC)c2)c1`
[out] 57000

[in] # return recorded IC50 for input `CC(C)COc1cccc(-c2cc(COC(C)(C)C(=O)O)nn2-c2ccccc2Cl)c1`
[out] 12000

[in] # return recorded IC50 for input `COc1cc(OC)cc(-c2cc(COC(C)(C)C(=O)O)nn2-c2ccccc2N2CCCC2)c1`
[out] 63000

[in] # return recorded IC50 for input `CC(C)(OCc1cc(-c2cccc(OC3CC3)c2)n(-c2ccccc2F)n1)C(=O)O`
[out] 25000

[in] # return recorded IC50 for input `Cn1ncc2ccc(-c3cc(COC(C)(C)C(=O)O)nn3-c3ccccc3N3CCCC3)cc21`
[out] 92000

[in] # return recorded IC50 for input `CCn1ncc2ccc(-c3cc(CO[C@](C)(CC)C(=O)O)nn3-c3ccccc3N3CCCC3)cc21`
[out] 36000
